Reported endpoint: melting point

q: Quickly give me recorded melting point for "COC(=O)NC[C@@H]1OC(=O)N2c3cc(F)c(N4[C@@H]5CC[C@H]4CSC5)cc3OC[C@@H]12"
a: 149 to 151 °C

q: Quickly give me recorded melting point for "O=C(NC[C@@H]1OC(=O)N2c3cc(F)c(N4[C@@H]5CC[C@H]4CSC5)cc3OC[C@@H]12)C1CCC1"
a: 195 to 196 °C

q: Quickly give me recorded melting point for "CC(=O)NC[C@@H]1OC(=O)N2c3cc(F)c(N4CC[S+]([O-])CC4)cc3OC[C@@H]12"
a: 214 to 216 °C

q: Quickly give me recorded melting point for "CC(=O)NC[C@@H]1OC(=O)N2c3cc(F)c(N4CCC(F)(F)CC4)cc3OC[C@@H]12"
a: 230 to 232 °C

q: Quickly give me recorded melting point for "O=C1O[C@H](CNc2ccon2)[C@H]2COc3cc(N4CCSCC4)c(F)cc3N12"
a: 149 to 150 °C

q: Quickly give me recorded melting point for "O=C1O[C@@H](CNc2ccon2)[C@@H]2COc3cc(N4CCSCC4)c(F)cc3N12"
a: 148 to 150 °C

q: Quickly give me recorded melting point for "CC(C)C(=O)NC[C@@H]1OC(=O)N2c3cc(F)c(N4CCSCC4)cc3OC[C@@H]12"
a: 193 to 195 °C

---

- Test system: Vero cells
- Protocol summary: Cytotoxicity test (MTT)
- Assay type: cell-based
- Cond: Chlorocebus sabaeus; Vero cells, MTT, 48 hours of incubation, highest concentration 64 μg/mL; read-out: IC50
Reported endpoint: IC50

q: Quickly give me recorded IC50 for "NC[C@@H]1OC(=O)N2c3cc(F)c(N4CCSCC4)cc3OC[C@@H]12"
a: 36 µg/mL

q: Quickly give me recorded IC50 for "O=C(NC[C@@H]1OC(=O)N2c3cc(F)c(N4CC[S+]([O-])CC4)cc3OC[C@@H]12)C(F)F"
a: > 64 µg/mL

q: Quickly give me recorded IC50 for "CC(=O)NC[C@@H]1OC(=O)N2c3cc(F)c(N4CCC(F)(F)CC4)cc3OC[C@@H]12"
a: > 64 µg/mL

q: Quickly give me recorded IC50 for "O=C(NC[C@@H]1OC(=O)N2c3cc(F)c(N4CCSCC4)cc3OC[C@@H]12)C1CC1"
a: > 64 µg/mL

---

Reported endpoint: melting point

q: Quickly give me recorded melting point for "NC[C@@H]1OC(=O)N2c3cc(F)c(N4[C@@H]5CC[C@H]4CSC5)cc3OC[C@@H]12"
a: 168 to 169 °C

q: Quickly give me recorded melting point for "CC(=O)NC[C@@H]1OC(=O)N2c3cc(F)c(N4CCS(=O)(=O)CC4)cc3OC[C@@H]12"
a: 226 to 228 °C

q: Quickly give me recorded melting point for "O=C(NC[C@@H]1OC(=O)N2c3cc(F)c(N4C5CCC4CSC5)cc3OC[C@@H]12)c1cnccn1"
a: > 250 °C

q: Quickly give me recorded melting point for "O=C(NC[C@@H]1OC(=O)N2c3cc(F)c(N4CC5(COC5)C4)cc3OC[C@@H]12)C1CC1"
a: 181 to 183 °C

q: Quickly give me recorded melting point for "O=C(NC[C@@H]1OC(=O)N2c3cc(F)c(N4CCSCC4)cc3OC[C@@H]12)c1ccncc1"
a: 135 to 137 °C

q: Quickly give me recorded melting point for "CNC[C@@H]1OC(=O)N2c3cc(F)c(N4CCSCC4)cc3OC[C@@H]12"
a: 155 to 156 °C

q: Quickly give me recorded melting point for "O=C(NC[C@@H]1OC(=O)N2c3cc(F)c(N4[C@@H]5CC[C@H]4CSC5)cc3OC[C@@H]12)C1CC1"
a: 169 to 171 °C

q: Quickly give me recorded melting point for "COC(=O)NC[C@@H]1OC(=O)N2c3cc(F)c(N4CCSCC4)cc3OC[C@@H]12"
a: 155 to 156 °C

q: Quickly give me recorded melting point for "CC(=O)NC[C@@H]1OC(=O)N2c3cc(F)c(N4CC5(COC5)C4)cc3OC[C@@H]12"
a: 105 to 107 °C

q: Quickly give me recorded melting point for "O=C1O[C@@H](CNC2COC2)[C@@H]2COc3cc(N4CCSCC4)c(F)cc3N12"
a: 162 to 164 °C

q: Quickly give me recorded melting point for "CC(=O)NC[C@@H]1OC(=O)N2c3cc(F)c(N4[C@@H]5CC[C@H]4CSC5)cc3OC[C@@H]12"
a: 235 to 236 °C

q: Quickly give me recorded melting point for "O=C1O[C@@H](Cn2ccnn2)[C@@H]2COc3cc(N4CCSCC4)c(F)cc3N12"
a: 223 to 225 °C

q: Quickly give me recorded melting point for "O=C(NC[C@@H]1OC(=O)N2c3cc(F)c(N4CCSCC4)cc3OC[C@@H]12)C1CC1"
a: 209 to 211 °C

q: Quickly give me recorded melting point for "CC(C)C(=O)NC[C@@H]1OC(=O)N2c3cc(F)c(N4C5CCC4CSC5)cc3OC[C@@H]12"
a: 164 to 165 °C

q: Quickly give me recorded melting point for "O=C(NC[C@@H]1OC(=O)N2c3cc(F)c(N4CCSCC4)cc3OC[C@@H]12)c1cnccn1"
a: 212 to 214 °C

q: Quickly give me recorded melting point for "O=C(NC[C@@H]1OC(=O)N2c3cc(F)c(N4CC5(COC5)C4)cc3OC[C@@H]12)C1CCC1"
a: 118 to 120 °C

q: Quickly give me recorded melting point for "COC(=O)NC[C@H]1OC(=O)N2c3cc(F)c(N4CCSCC4)cc3OC[C@H]12"
a: 158 to 160 °C

q: Quickly give me recorded melting point for "NC[C@@H]1OC(=O)N2c3cc(F)c(N4CCSCC4)cc3OC[C@@H]12"
a: 155 to 157 °C

q: Quickly give me recorded melting point for "O=C(NC[C@@H]1OC(=O)N2c3cc(F)c(N4CC[S+]([O-])CC4)cc3OC[C@@H]12)C(F)F"
a: 190 to 192 °C

q: Quickly give me recorded melting point for "CS(=O)(=O)NC[C@@H]1OC(=O)N2c3cc(F)c(N4CCSCC4)cc3OC[C@@H]12"
a: 234 to 235 °C

q: Quickly give me recorded melting point for "O=C(NC[C@@H]1OC(=O)N2c3cc(F)c(N4CCSCC4)cc3OC[C@@H]12)C(F)F"
a: 200 to 202 °C

q: Quickly give me recorded melting point for "O=C1O[C@@H](Cn2ccnn2)[C@@H]2COc3cc(N4[C@@H]5CC[C@H]4CSC5)c(F)cc3N12"
a: 225 to 227 °C

q: Quickly give me recorded melting point for "O=C(NC[C@@H]1OC(=O)N2c3cc(F)c(N4CCSCC4)cc3OC[C@@H]12)C1CCC1"
a: 176 to 178 °C
